SETUP CONDITIONS: in methanol, 318.15 K

[
  {
    "ENTRY SMILES": "Cc1c(-c2ccccc2)oc2c(C(=O)O)cccc2c1=O",
    "solubility (mole fraction)": 0.00316
  }
]

###

SETUP CONDITIONS: in n-butyl acetate, 323.15 K

[
  {
    "ENTRY SMILES": "Cc1c(-c2ccccc2)oc2c(C(=O)O)cccc2c1=O",
    "solubility (mole fraction)": 0.00268
  }
]

###

SETUP CONDITIONS: in n-butyl acetate, 283.15 K

[
  {
    "ENTRY SMILES": "Cc1c(-c2ccccc2)oc2c(C(=O)O)cccc2c1=O",
    "solubility (mole fraction)": 0.0011
  }
]

###

SETUP CONDITIONS: in acetonitrile, 303.15 K
READOUT LABEL: solubility (mole fraction)

[
  {
    "ENTRY SMILES": "Cc1c(-c2ccccc2)oc2c(C(=O)O)cccc2c1=O",
    "READOUT LABEL": "solubility (mole fraction)",
    "READOUT VALUE": 0.000542
  }
]

###

SETUP CONDITIONS: in n-butyl acetate, 318.15 K

[
  {
    "ENTRY SMILES": "Cc1c(-c2ccccc2)oc2c(C(=O)O)cccc2c1=O",
    "solubility (mole fraction)": 0.00242
  }
]

###

SETUP CONDITIONS: in ethanol, 323.15 K

[
  {
    "ENTRY SMILES": "Cc1c(-c2ccccc2)oc2c(C(=O)O)cccc2c1=O",
    "solubility (mole fraction)": 0.00512
  }
]

###

SETUP CONDITIONS: in ethyl acetate, 293.15 K

[
  {
    "ENTRY SMILES": "Cc1c(-c2ccccc2)oc2c(C(=O)O)cccc2c1=O",
    "solubility (mole fraction)": 0.00178
  }
]

###

SETUP CONDITIONS: in ethyl acetate, 278.15 K
READOUT LABEL: solubility (mole fraction)

[
  {
    "ENTRY SMILES": "Cc1c(-c2ccccc2)oc2c(C(=O)O)cccc2c1=O",
    "READOUT VALUE": 0.00088
  }
]

###

SETUP CONDITIONS: in n-butyl acetate, 288.15 K

[
  {
    "ENTRY SMILES": "Cc1c(-c2ccccc2)oc2c(C(=O)O)cccc2c1=O",
    "solubility (mole fraction)": 0.00125
  }
]

###

SETUP CONDITIONS: in DMF, 298.15 K
READOUT LABEL: solubility (mole fraction)

[
  {
    "ENTRY SMILES": "Cc1c(-c2ccccc2)oc2c(C(=O)O)cccc2c1=O",
    "READOUT LABEL": "solubility (mole fraction)",
    "READOUT VALUE": 0.0321
  }
]

###

SETUP CONDITIONS: in methanol, 323.15 K

[
  {
    "ENTRY SMILES": "Cc1c(-c2ccccc2)oc2c(C(=O)O)cccc2c1=O",
    "solubility (mole fraction)": 0.00419
  }
]

###

SETUP CONDITIONS: in ethyl acetate, 298.15 K
READOUT LABEL: solubility (mole fraction)

[
  {
    "ENTRY SMILES": "Cc1c(-c2ccccc2)oc2c(C(=O)O)cccc2c1=O",
    "READOUT LABEL": "solubility (mole fraction)",
    "READOUT VALUE": 0.00221
  }
]

###

SETUP CONDITIONS: in ethanol, 278.15 K

[
  {
    "ENTRY SMILES": "Cc1c(-c2ccccc2)oc2c(C(=O)O)cccc2c1=O",
    "solubility (mole fraction)": 0.00108
  }
]

###

SETUP CONDITIONS: in methanol, 288.15 K
READOUT LABEL: solubility (mole fraction)

[
  {
    "ENTRY SMILES": "Cc1c(-c2ccccc2)oc2c(C(=O)O)cccc2c1=O",
    "READOUT VALUE": 0.000587
  }
]

###

SETUP CONDITIONS: in methyl acetate, 323.15 K

[
  {
    "ENTRY SMILES": "Cc1c(-c2ccccc2)oc2c(C(=O)O)cccc2c1=O",
    "solubility (mole fraction)": 0.00673
  }
]

###

SETUP CONDITIONS: in THF, 293.15 K
READOUT LABEL: solubility (mole fraction)

[
  {
    "ENTRY SMILES": "Cc1c(-c2ccccc2)oc2c(C(=O)O)cccc2c1=O",
    "READOUT VALUE": 0.0217
  }
]

###

SETUP CONDITIONS: in isobutanol, 293.15 K
READOUT LABEL: solubility (mole fraction)

[
  {
    "ENTRY SMILES": "Cc1c(-c2ccccc2)oc2c(C(=O)O)cccc2c1=O",
    "READOUT VALUE": 0.00175
  }
]

###

SETUP CONDITIONS: in DMF, 283.15 K

[
  {
    "ENTRY SMILES": "Cc1c(-c2ccccc2)oc2c(C(=O)O)cccc2c1=O",
    "solubility (mole fraction)": 0.0165
  }
]

###

SETUP CONDITIONS: in ethanol, 313.15 K
READOUT LABEL: solubility (mole fraction)

[
  {
    "ENTRY SMILES": "Cc1c(-c2ccccc2)oc2c(C(=O)O)cccc2c1=O",
    "READOUT VALUE": 0.00363
  }
]

###

SETUP CONDITIONS: in ethyl acetate, 323.15 K

[
  {
    "ENTRY SMILES": "Cc1c(-c2ccccc2)oc2c(C(=O)O)cccc2c1=O",
    "solubility (mole fraction)": 0.00594
  }
]

###

SETUP CONDITIONS: in acetone, 308.15 K

[
  {
    "ENTRY SMILES": "Cc1c(-c2ccccc2)oc2c(C(=O)O)cccc2c1=O",
    "solubility (mole fraction)": 0.00438
  }
]

###

SETUP CONDITIONS: in isobutanol, 298.15 K

[
  {
    "ENTRY SMILES": "Cc1c(-c2ccccc2)oc2c(C(=O)O)cccc2c1=O",
    "solubility (mole fraction)": 0.00214
  }
]

###

SETUP CONDITIONS: in acetonitrile, 278.15 K
READOUT LABEL: solubility (mole fraction)

[
  {
    "ENTRY SMILES": "Cc1c(-c2ccccc2)oc2c(C(=O)O)cccc2c1=O",
    "READOUT LABEL": "solubility (mole fraction)",
    "READOUT VALUE": 0.000211
  }
]

###

SETUP CONDITIONS: in ethyl acetate, 303.15 K
READOUT LABEL: solubility (mole fraction)

[
  {
    "ENTRY SMILES": "Cc1c(-c2ccccc2)oc2c(C(=O)O)cccc2c1=O",
    "READOUT VALUE": 0.00272
  }
]

###

SETUP CONDITIONS: in DMF, 308.15 K

[
  {
    "ENTRY SMILES": "Cc1c(-c2ccccc2)oc2c(C(=O)O)cccc2c1=O",
    "solubility (mole fraction)": 0.0485
  }
]

###

SETUP CONDITIONS: in ethyl acetate, 318.15 K

[
  {
    "ENTRY SMILES": "Cc1c(-c2ccccc2)oc2c(C(=O)O)cccc2c1=O",
    "solubility (mole fraction)": 0.00494
  }
]

###

SETUP CONDITIONS: in isobutanol, 303.15 K

[
  {
    "ENTRY SMILES": "Cc1c(-c2ccccc2)oc2c(C(=O)O)cccc2c1=O",
    "solubility (mole fraction)": 0.00261
  }
]

###

SETUP CONDITIONS: in THF, 303.15 K
READOUT LABEL: solubility (mole fraction)

[
  {
    "ENTRY SMILES": "Cc1c(-c2ccccc2)oc2c(C(=O)O)cccc2c1=O",
    "READOUT VALUE": 0.0313
  }
]

###

SETUP CONDITIONS: in methyl acetate, 313.15 K

[
  {
    "ENTRY SMILES": "Cc1c(-c2ccccc2)oc2c(C(=O)O)cccc2c1=O",
    "solubility (mole fraction)": 0.00473
  }
]

###

SETUP CONDITIONS: in acetonitrile, 298.15 K

[
  {
    "ENTRY SMILES": "Cc1c(-c2ccccc2)oc2c(C(=O)O)cccc2c1=O",
    "solubility (mole fraction)": 0.000458
  }
]

###

SETUP CONDITIONS: in ethanol, 288.15 K

[
  {
    "ENTRY SMILES": "Cc1c(-c2ccccc2)oc2c(C(=O)O)cccc2c1=O",
    "solubility (mole fraction)": 0.00153
  }
]

###

SETUP CONDITIONS: in methanol, 298.15 K

[
  {
    "ENTRY SMILES": "Cc1c(-c2ccccc2)oc2c(C(=O)O)cccc2c1=O",
    "solubility (mole fraction)": 0.00102
  }
]
